STUDY TARGET: T1, TNFR1 (Homo sapiens, UniProt P19438)
T1 chain: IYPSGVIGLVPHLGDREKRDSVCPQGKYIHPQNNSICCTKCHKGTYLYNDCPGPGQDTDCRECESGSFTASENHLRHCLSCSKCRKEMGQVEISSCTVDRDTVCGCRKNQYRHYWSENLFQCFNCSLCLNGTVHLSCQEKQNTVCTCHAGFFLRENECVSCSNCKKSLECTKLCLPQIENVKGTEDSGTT
PROCEDURE TEXT: yeast display SC50
Examples of binders with documented apparent Kd (screen) follow.

{"columns": ["BINDER", "QUANTITY UNIT", "apparent Kd (screen)"],
 "data": [
  ["E86R (designed binder) MTLQELLREEALRRAEAEAFRYALELLAEKFPEQKEYLLDLAEEIESQIRSLSGVDVEDVRKFLDKEWAWVKELLAEHPAELAEVRAARAARLAELRAEVEAKVAA", "nM", 1.27],
  ["L64M (designed binder) MTLQELLREEALRRAEAEAFRYALELLAEKFPEQKEYLLDLAEEIESQIRSLSGVDVEDVRKFMDKEWAWVKELLAEHPAELAEVEAARAARLAELRAEVEAKVAA", "nM", 0.653]
]}
